System: DLD-1 colon
Test: NCI tumour cell line growth inhibition, 48 h
Examples of compounds with documented TGI follow.

N#Cc1cn(C2OC(CO)C(O)C2O)c2ncnc(N)c12 (stereo not drawn)
> 272 µM
Cc1ccc(C(=O)N(C2CCCCC2)C2CCCCC2)cc1N=NN(C)C
28.6 µM

// below: TGI requested for another compound
// query Report TGI for CNC(P(=O)([O-])[O-])P(=O)([O-])[O-].N.N.[Pt+2] tested on DLD-1 colon.
// result > 100 µM

====

Tested on: RXF 393 renal
Assay: NCI tumour cell line growth inhibition, 48 h
Examples of molecules with documented TGI follow.

Below: 5 molecules and their reported TGI.
C=CCC(C)C12CCNC(Cc3ccc(O)cc31)C2C (stereo unspecified)
> 100 µM
CC1(C)OP23(NC(=O)OC2(C(F)(F)F)c2ccccc2O3)OC1(C)C (stereo unspecified)
> 100 µM
COc1cccc(N2C(=O)C3c4[nH]c5ccccc5c4C4c5ccccc5CCC4C3C2=O)c1 (stereo unspecified)
> 10 µM
CSc1c(C(=O)Nc2ccccc2)c(N)nn1-c1ccccc1
> 100 µM
COc1ccc2nc3cc(Cl)ccc3c(NCCCCCC(=O)NC(COc3cnc4c(ccc5cccnc54)c3)COc3cnc4c(ccc5cccnc54)c3)c2c1
30.2 µM

// query Could you share which TGI value was measured for C=C1C(=O)O[C@H]2[C@H]1CC/C(Cn1cc(CNC(=O)Cc3cn(C(=O)c4ccc(Cl)cc4)c4ccc(OC)cc34)nn1)=C\CC[C@@]1(C)O[C@@H]21 ?
// result 2.59 µM

====

Tested on: SK-MEL-2 melanoma
Assay: NCI tumour cell line growth inhibition, 48 h; in the data active = GI50 below about 0.43 µM; inactive = the rest
Please state which outcome applies, choosing from yes (1) (active), no (0) (inactive)

N=C1C(c2nc(-c3ccc(Br)cc3)cs2)=C(O)CN1Cc1cccnc1
no (0)
O=[N+]([O-])C1C(c2ccccc2)C12c1ccccc1-c1ccccc12 (stereo not drawn)
no (0)
Cc1ccc(-[n+]2c3cc(N)c(C)cc3nc3cc(C)c(Nc4ccccc4)cc32)cc1
yes (1)

// query Could you kindly confirm the outcome this assay logged for COc1ccc(Cl)cc1Nc1nc(C(F)(F)F)ccc1C(=O)N/N=C/c1c(Cl)cccc1Cl ?
// result no (0)

// query Could you kindly confirm the outcome this assay logged for O=C(CSc1nc2ccccc2[nH]1)Nc1ccc(-c2nc3ccccc3s2)c(Cl)c1 ?
// result no (0)

// query Could you kindly confirm the outcome this assay logged for O=C(CN1CCN(c2ncccn2)CC1)Nc1ccc(Cl)cc1C(=O)c1ccccc1Cl ?
// result no (0)

// query Could you kindly confirm the outcome this assay logged for COc1cc2c3c(n(C)c(=O)c2cc1OC)-c1cc2c(cc1/C3=C\CCCCCN)OCO2 ?
// result no (0)

// query Could you kindly confirm the outcome this assay logged for Cc1cc(-c2ncc(CC(=O)Nc3ccc(-c4cnccn4)cn3)cc2C)ccn1 ?
// result no (0)

====

Examples of compounds with documented log10 TGI follow.
Test system: SN12C renal
Test: NCI tumour cell line growth inhibition, 48 h
Friendly reminder: values = log10 of TGI, unit µM.

O=C(NNc1nc(Cl)nc(N2CCN(C(c3ccccc3)c3ccccc3)CC2)n1)c1ccccc1
0.50
COc1ccc2nc(N/N=C(\C)c3ccccn3)cc(C)c2c1
0.23
CC(=O)O/C=C\OC1CCCC1(c1ccccc1)c1ccccc1 (centres undefined)
1.01
CC1=C(C(=O)Nc2c(C)cccc2C)C(c2ccc3c(c2)OCO3)C(C(=O)Nc2c(C)cccc2C)=C(C)N1
1.51
Cc1cnoc1NC1=CC(=O)C(=O)c2ccccc21
0.55
CCCC/C=C1\CCC(CN2CCCCC2)C1=O (centres undefined)
1.41
COc1cc2c(cc1C[N+](C)(C)CSc1ccccc1)-c1ccccc1CC2
1.28

// below: log10 TGI requested for another compound
// query Could you share which log10 TGI value was measured for CCN(CC)Cc1nc2sc3c(c2c(=O)n1-c1ccccc1)CCCC3 ?
// result 1.58

====

System: MALME-3M melanoma
Assay: NCI tumour cell line growth inhibition, 48 h
reportedEndpoint: TGI

// query Could you share which TGI value was measured for CCC[CH2][Sn-]([CH2]CCC)([CH2]CCC)[O]c1cc(Cl)c(Cl)cc1Cl ?
// result 0.379 µM

// query Could you share which TGI value was measured for COc1ccc(N=C2CSc3nnc(-c4cc(F)c(Cl)cc4Cl)n3N2)cc1 ?
// result 3.77 µM

// query Could you share which TGI value was measured for CC(=O)C1CC(C)=CCC12C(=O)Nc1ccccc12 (stereo not drawn) ?
// result > 100 µM

// query Could you share which TGI value was measured for CCc1cccc(C(C)C)c1NC(=O)C(=O)C(Cc1nc2ccccc2[nH]c1=O)C(=O)OC (stereo not drawn) ?
// result > 100 µM

// query Could you share which TGI value was measured for CNC(=O)c1cc(OC2CCC(NC(=O)Nc3ccc(Cl)c(C(F)(F)F)c3)CC2)ccn1 (stereo not drawn) ?
// result 34.3 µM

// query Could you share which TGI value was measured for O=C1CC(O)C=C1Nc1ccc(Cl)cc1 (stereo not drawn) ?
// result > 100 µM

// query Could you share which TGI value was measured for Oc1ccc(Cl)cc1C1=N/C(=N\CN2CCN(C/N=C3/N=C(c4cc(Cl)ccc4O)CC(c4ccccc4)N3)CC2)NC(c2ccccc2)C1 (stereo not drawn) ?
// result > 100 µM

// query Could you share which TGI value was measured for Cc1ccc2c(=O)cc(-c3csc4ccccc34)[nH]c2n1 ?
// result 54.6 µM

// query Could you share which TGI value was measured for CCCCOC(=O)C(=O)C(CCC(=O)c1ccc(C)cc1)C(=O)C=C(C)C (stereo not drawn) ?
// result > 100 µM

// query Could you share which TGI value was measured for COc1ccc2nc(N/N=C(\C)c3ccccn3)cc(C)c2c1 ?
// result 0.697 µM

// query Could you share which TGI value was measured for CNC(P(=O)([O-])[O-])P(=O)([O-])[O-].N.N.[Pt+2] ?
// result > 100 µM

// query Could you share which TGI value was measured for COc1ccc2nc3cc(Cl)ccc3c(NCCCCCC(=O)NC(COc3cnc4c(ccc5cccnc54)c3)COc3cnc4c(ccc5cccnc54)c3)c2c1 ?
// result > 100 µM

// query Could you share which TGI value was measured for Cc1ccc(OCC(=O)N2N=C(c3ccccc3)CC2(O)c2ccccc2)cc1 (stereo not drawn) ?
// result > 100 µM

====

System: PC-3 prostate
Experiment: NCI tumour cell line growth inhibition, 48 h
Examples of compounds with documented TGI follow.

Below: 3 compounds and their reported TGI.
COc1ccc2c(c1)O[C@@H]1C(O)Oc3cc(OC)c(OC)cc3[C@]1(O)C2=O (stereo not given in full)
> 100 µM
O=C1NCc2ccc3c(-c4cccc(Cl)c4)c[nH]c3c21
> 50 µM
CNC(=O)c1cc(OC2CCC(NC(=O)Nc3ccc(Cl)c(C(F)(F)F)c3)CC2)ccn1 (stereo not given)
> 44.6 µM

// query Could you share which TGI value was measured for Brc1ccc(N=NN2CCCCC2)cc1 ?
// result > 100 µM

// query Could you share which TGI value was measured for COc1cc(C2CC(c3ccc(C)cc3)=NN2C=O)ccc1Oc1ccnc2cc(Cl)ccc12 (stereo not given) ?
// result > 50 µM

====

Examples of molecules with documented TGI follow.
Test system: NCI-H23 lung
Test: NCI tumour cell line growth inhibition, 48 h

Below: 4 molecules and their reported TGI.
COc1ccc(-c2nn3ncccc3c2-c2ccnc(Nc3ccc(Cl)c(C(F)(F)F)c3)n2)cc1
> 25 µM
CCCCOC(=O)CNC(=O)OCCCCC#CC#CCCCCOC(=O)NCC(=O)OCCCC
> 100 µM
Cc1ccc(F)cc1NC(=O)O/N=C(\Cl)C(C)C
> 56.9 µM
COc1ccc2c(c1)OC(c1cccnc1)C(c1ccccc1)C2=O (stereo not given)
> 100 µM

// below: TGI requested for another molecule
// query Could you share which TGI value was measured for CC(=O)NCCCCNCCCNC(C)=O ?
// result > 100 µM

====

System: 786-0 renal
Test: NCI tumour cell line growth inhibition, 48 h
Examples of compounds with documented TGI follow.

Below: 3 compounds and their reported TGI.
CCc1cccc(C(C)C)c1NC(=O)C(=O)C(Cc1nc2ccccc2[nH]c1=O)C(=O)OC (configuration not stated)
> 100 µM
O=C1NCc2ccc3c(-c4cccc(Cl)c4)c[nH]c3c21
> 50 µM
COc1cc(C2C=C(c3cccc(NC(C)=O)c3)Nc3ncnn32)cc(OC)c1OC (configuration not stated)
> 100 µM

// query Could you share which TGI value was measured for CCCCOC(=O)C(=O)C(CCC(=O)c1ccc(C)cc1)C(=O)C=C(C)C (configuration not stated) ?
// result > 100 µM

// query Could you share which TGI value was measured for CC(C)(CO)CNc1cc(=O)[nH]c(N)n1 ?
// result > 100 µM

// query Could you share which TGI value was measured for CN1CC2=C(OC(N)=C(C#N)C2c2cccs2)/C(=C/c2cccs2)C1 (configuration not stated) ?
// result > 69.9 µM

// query Could you share which TGI value was measured for COC(=O)c1cc(C)ccc1CC(Cc1cccc(C)c1)C(=O)OC (configuration not stated) ?
// result > 100 µM
